Measured composite z-score of individual entries
Target: Follistatin-related protein 3 (Homo sapiens) (UniProt O95633)
Sequence (O95633 whole entry, looked up): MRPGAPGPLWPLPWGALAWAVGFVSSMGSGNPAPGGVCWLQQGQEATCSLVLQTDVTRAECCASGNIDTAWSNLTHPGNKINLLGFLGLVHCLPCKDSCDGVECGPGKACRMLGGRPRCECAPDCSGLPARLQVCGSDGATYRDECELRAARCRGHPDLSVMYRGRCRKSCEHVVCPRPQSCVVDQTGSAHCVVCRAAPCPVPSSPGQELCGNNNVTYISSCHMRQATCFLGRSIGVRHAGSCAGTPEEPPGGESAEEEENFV
Assay: FSTL3 binders on small-molecule microarrays, primary screen, biochemical, small-molecule microarray, 635 nm fluorescence (AID 1105);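 further: score merges emission near 667 nm and signal to noise per printed spot across three slides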
Details: FSTL3 binding, higher = more signal
Keep the answer to the number alone.

Example entries and their recorded answers appear below.
O=C1O[C@@H](c2ccccc2)[C@@H](c2ccccc2)N2[C@@H](c3ccccc3OCCO)[C@]3(C(=O)Nc4ccc(C#CC5(O)CCCCCC5)cc43)[C@@H](C(=O)Nc3nc4ccccc4s3)[C@H]12 : 0.996
CC(C)c1ccc(NN2C(C(O)c3ccc(N(C)C)cc3)C=CC3C(=O)N(c4ccccc4)C(=O)C32)cc1 (stereo not drawn) : 1.25

Next molecule, please.
Per the record, CCN(CC)c1ccc(N2CC=CC34O[C@@H]5/C=C\CCCOC(=O)C5[C@H]3C(=O)N(C(CO)C(C)C)[C@@H]4C2=O)cc1 (stereo partly drawn) has composite z-score of -0.8

---

Target: E3 ubiquitin-protein ligase XIAP (Homo sapiens)
Experiment: XIAP binders, primary screen, biophysical, small-molecule microarray, fluorescence 635 nm (AID 1181);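 further: score merges 667 nm emission and signal to noise over triplicate slides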
Conditions: small-molecule microarray binding, higher = more signal
If the reported composite z-score equals or exceeds 0.005, assign True. If not, assign False.

C=CC(COC(C)=O)NS(=O)(=O)c1ccc(Br)cc1 (stereo unspecified) : False
CC(=O)NCCCC[C@@H]1NC(=O)[C@@H]2C[C@H](C(=O)NCCCCCCNC(=O)CS)[C@H](c3ccc(O)cc3)N2C1=O : False
COc1ccccc1CN1C(=O)c2ccccc2[C@@H](C(=O)NCCN2CCOCC2)[C@@H]1c1ccc(CO)cc1 : True

-- ask Textbook exercise: given the entry C[C@]1(C(=O)NCc2ccccc2)c2ccccc2C(=O)N(Cc2ccc(OC(F)(F)F)cc2)[C@H]1c1ccc(CO)cc1 , state whether its composite z-score is greater than or equal to 0.005.
-- reply False

-- ask Check if composite z-score >= 0.005 (inclusive). Item: CCOC(=O)[C@H]1C/C=C/C[C@H](C(=O)OCC)C(=O)O[C@H]2[C@@H](OC)O[C@H](CO)[C@@H](OC(=O)Nc3ccc4c(c3)OCO4)[C@@H]2OC1=O
-- reply False

-- ask Determine whether this compound has composite z-score no lower than 0.005: CCN(CC)c1ccc(N2CC=CC34O[C@@H]5C=CCCOC(=O)C5[C@H]3C(=O)N(CCCCCO)[C@@H]4C2=O)cc1 (stereo partly specified)
-- reply True

-- ask Can COC(=O)c1ccc(C(O)C2C=CC3C(=O)N(c4ccccc4)C(=O)C3N2Nc2ccc(C#N)cc2)o1 (stereo unspecified) be said to have composite z-score at or above 0.005?
-- reply False

-- ask hey, is composite z-score for this one >= 0.005? CCCC[C@H]1OB(O)C[C@H]2C1=C(C)C[C@H]1C(=O)N(Cc3ccccc3)C(=O)[C@H]12
-- reply False

-- ask Kindly determine if composite z-score recorded for O=C1OCC=C[C@H]2OC34C=CCN(c5ccc6ccccc6c5)C(=O)[C@H]3N(CCCO)C(=O)[C@@H]4[C@@H]12 (stereo partly specified) is above or exactly 0.005.
-- reply False

-- ask Answer whether composite z-score of CCCN1C(=O)[C@]2(COC(c3ccc(OCCCO)cc3)=N2)Cc2ccccc21 is greater than or equal to 0.005.
-- reply False

-- ask Decide: is the reported value of composite z-score for C=C(C(=O)CC[C@H](OC(C)=O)c1ccc(OCCO)cc1)C(C)C equal to or greater than 0.005?
-- reply False

-- ask Does [N-]=[N+]=NCc1ccccc1C[C@]1(C(=O)NCCN2CCOCC2)N=C(c2ccc(OCCCO)cc2)O[C@H]1c1ccccc1N=[N+]=[N-] have a reported composite z-score of at least 0.005?
-- reply True

---

Test system: Human papillomavirus type 1a protein E7 (residues 44-93)
Test: HPV1a E7 fragment binders on microarrays, primary screen, biochemical, small-molecule microarray, residues 44-93, 635 nm fluorescence (AID 1108);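 further: E7 fragment applied at 1 µg/mL in TBST for 1 h at 4 C; score combines spot fluorescence with its signal to noise ratio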
Conditions: small-molecule microarray binding, fluorescence 635 nm; higher = more signal
READOUT NAME: composite z-score
Respond numerically, and do not add a unit to the figure.

As a guide, the following entries are already answered.
CC(C)OC(=O)CC(=O)CC(O)c1ccc(C#N)cc1 (stereo not drawn) : 0.443
O=C1O[C@H](c2ccccc2)[C@H](c2ccccc2)N2[C@H]1[C@@H](C(=O)N1CCN(c3ncccn3)CC1)[C@]1(C(=O)Nc3ccccc31)[C@H]2c1ccc(OCCO)cc1 : 1.42
Cc1ccc([C@H]2C(C(=O)O)=C[C@@H](C)N2S(=O)(=O)c2ccc(C)cc2)cc1 : 0.801
CCOC(=O)C1=CCC(c2ccc([N+](=O)[O-])cc2)N(S(=O)(=O)c2ccc(C)cc2)C1 (stereo not drawn) : 1.08
CC(=O)NCCCC[C@@H]1NC(=O)[C@H]2C[C@@H](C(=O)NCCCCCC[N+](C)(C)C)[C@@H](c3cccc(OCCO)c3)N2C1=O : 1.1
COC(=O)[C@@]1(Cc2ccc(F)cc2)[C@H]2c3cc(C(=O)N(C)C)n(CCc4ccccn4)c3C[C@H]2CN1C(=O)c1ccccc1 : 1.39

Entry CC(C)(C)OC(=O)CC[C@@]1(C(=O)NCCN2CCOCC2)N=C(c2ccc(OCCCO)cc2)O[C@@H]1c1ccccc1 ; composite z-score = 0.925

According to the records, this compound [N-]=[N+]=Nc1ccccc1[C@@H]1OC(c2ccc(OCCCO)cc2)=N[C@]1(CCS(=O)(=O)c1ccccc1)C(=O)N1CCOCC1 displays composite z-score of 1.03

---

Biological target: Luciferin 4-monooxygenase (Photinus pyralis)
Assay: firefly luciferase enzyme inhibitors, primary screen, biochemical, luminescence, purified enzyme, 2006 set (AID 1141);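 further: cell-free assay with purified firefly luciferase at 100 ng per well in PBS; test concentration not given here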
Conditions: SteadyGlo luminescence, 30 min, called active from +8 up or from −8 down
Calls of active or inactive are those of the source.
Respond using exactly one of the listed classes: active, inactive

# example entries with known answers
COc1ccc([Si](C)(C)[C@@H]2[C@@H](CC(=O)N(CCO)Cc3ccccc3)O[C@]3(C(=O)N(C)c4ccccc43)[C@H]2C)cc1 : inactive
Cc1ccc(S[C@]2(C(=O)NCc3ccccc3)CC(=O)N(Cc3ccccc3)[C@@H]2c2ccc(CO)cc2)cc1 : inactive
O=C1O[C@@H](c2ccccc2)[C@@H](c2ccccc2)N2[C@@H](c3ccc(O)cc3)[C@]3(C(=O)Nc4ccc(C#CC5=CCCCC5)cc43)[C@@H](C(=O)O)[C@H]12 : inactive
O=C1C[C@]2(c3ccc([N+](=O)[O-])cc3)C(=O)N(CC(F)(F)F)c3cc(CO)ccc3[C@H]2N1CC12CC3CC(CC(C3)C1)C2 : inactive
C=CC[C@@]1(C(=O)NCC(O)CO)N=C(c2ccc(OCCCO)cc2)O[C@@H]1c1ccccc1N=[N+]=[N-] (some centres undefined) : active
C=CCNC(=O)[C@H]1[C@@H]2C(=O)O[C@@H](c3ccccc3)[C@@H](c3ccccc3)N2[C@@H](c2ccc(O)cc2)[C@]12C(=O)N(C(=O)OCCOC)c1ccc(C#CCCO)cc12 : inactive
O=C1C2C=CC(C(O)c3ccc(F)cc3)N(Nc3ccccc3)C2C(=O)N1c1ccccc1 (centres undefined) : inactive
NC(=O)NCC#Cc1ccc2c(c1)[C@]1(C(=O)N2)[C@H](C(=O)N2CCCCCCC2)[C@H]2C(=O)O[C@H](c3ccccc3)[C@H](c3ccccc3)N2[C@@H]1c1ccc(OCCO)cc1 : inactive
COC(=O)c1ccc(OC)c(/C=C\CC(OC(C)=O)c2ccccc2)c1 (centres undefined) : inactive
COC(=O)[C@@]1(Cc2ccccc2)[C@H]2c3cc(C(=O)N(C)C)n(Cc4cc(C)n(C)n4)c3C[C@H]2CN1C(=O)c1ccccc1 : inactive

-- ask Please let me know the test result on file for CCCCCN1CC=CC23O[C@@H]4/C=C\CCC(C)OC(=O)C4[C@H]2C(=O)N(CCCCCO)[C@@H]3C1=O (some centres undefined) .
-- reply inactive

-- ask Recorded test call requested for COC(=O)c1ccc(C(O)C2C=CC3C(=O)N(C)C(=O)C3N2NC(=O)OC(C)(C)C)o1 (centres undefined)
-- reply inactive

-- ask I would be grateful if you could indicate the recorded call for [N-]=[N+]=NCc1ccccc1C[C@]1(C(=O)NCCN2CCOCC2)N=C(c2ccc(OCCCO)cc2)O[C@H]1c1ccccc1N=[N+]=[N-] .
-- reply inactive

-- ask Which result was noted for this compound in the test: [N-]=[N+]=NCc1ccccc1C[C@@]1(C(=O)NCC(O)CO)N=C(c2ccc(OCCCO)cc2)O[C@@H]1c1ccccc1CN=[N+]=[N-] (some centres undefined)
-- reply inactive

---

System: Lefty1
Experiment: Lefty1 binders on small-molecule microarrays, primary screen, biochemical, small-molecule microarray, 635/667 nm fluorescence (AID 1139)
Details: small-molecule microarray binding, fluorescence 635/667; higher = more signal
Would you please tag the item 1 when its composite z-score is -0.04 or above, and -1 when it is below?

// known answers, use as guide
CC(C)NC(=O)[C@@H]1c2ccccc2C(=O)N(Cc2ccccc2Cl)[C@H]1c1ccc(CO)cc1 : -1
CCCCC(CC)C(O)C1C=CC2C(=O)N(c3ccccc3)C(=O)C2N1Nc1ccccc1 (stereo not drawn) : -1
[N-]=[N+]=Nc1ccccc1[C@H]1OC(c2ccc(OCCCO)cc2)=N[C@@]1(CCS(=O)(=O)c1ccccc1)C(=O)O : -1
CC(c1ccccc1)C(O)C1C=CC2C(=O)NC(=O)C2N1Nc1ccccn1 (stereo not drawn) : 1

-- ask Check the entry CC(=O)NCCCC[C@@H]1NC(=O)[C@@H]2C[C@H](C(=O)NCCCCCCNC(=O)CS)[C@H](c3ccc(O)cc3)N2C1=O : does composite z-score equal or exceed -0.04?
-- reply 1

-- ask Reported composite z-score at or above -0.04? CC(C)C(=C=CC[C@H](O)c1ccccc1OCCO)C[C@H](O)c1ccccn1
-- reply 1

-- ask # bool: composite z-score of CC=CC(O)C1C=CC2C(=O)N(c3ccccc3)C(=O)C2N1Nc1ccc(C(C)C)cc1 (stereo not drawn) >= -0.04
-- reply 1

-- ask Is it the case that O=C1N(CCS(=O)(=O)c2ccccc2)Cc2ccccc2[C@H]2OC(c3ccc(OCCCO)cc3)=N[C@@]12CCS(=O)(=O)c1ccccc1 has composite z-score reaching or exceeding -0.04?
-- reply -1
